# STUDY_TARGET: HA of ca A/Brit. Columbia/CN-6/04 (H7N3-LP) (influenza A virus)
# ASSAY_PROCEDURE: cell-based or functional assay
MEASURE: Neutralization IC50, H7-BC04 (µg/mL)
Provide the reading as a plain figure in µg/mL.

Indicate the recorded Neutralization IC50, H7-BC04 value for this binder: Antibody 5 (antibody, V domains shown) VH: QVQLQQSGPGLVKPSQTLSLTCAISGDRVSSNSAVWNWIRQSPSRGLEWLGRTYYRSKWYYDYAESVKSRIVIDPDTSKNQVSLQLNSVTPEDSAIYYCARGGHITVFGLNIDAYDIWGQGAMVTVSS VL: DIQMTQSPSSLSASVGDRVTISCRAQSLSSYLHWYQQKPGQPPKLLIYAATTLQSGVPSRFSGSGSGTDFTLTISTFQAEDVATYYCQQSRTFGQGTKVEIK
5.35

Look up Neutralization IC50, H7-BC04 of Antibody 8 (antibody, V domains shown) VH: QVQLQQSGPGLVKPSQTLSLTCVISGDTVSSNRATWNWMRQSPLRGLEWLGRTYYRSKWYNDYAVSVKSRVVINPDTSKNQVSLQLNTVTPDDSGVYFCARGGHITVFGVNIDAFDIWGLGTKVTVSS VL: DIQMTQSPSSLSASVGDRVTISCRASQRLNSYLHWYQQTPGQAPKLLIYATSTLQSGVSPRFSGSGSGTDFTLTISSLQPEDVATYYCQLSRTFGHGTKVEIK and report it.
14.7

Give the value of Neutralization IC50, H7-BC04 reported for the following: Antibody 10 (antibody, V domains shown) VH: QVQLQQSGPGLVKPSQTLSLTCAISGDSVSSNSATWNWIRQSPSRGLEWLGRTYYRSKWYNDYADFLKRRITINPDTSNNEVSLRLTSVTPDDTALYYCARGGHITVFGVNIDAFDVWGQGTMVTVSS VL: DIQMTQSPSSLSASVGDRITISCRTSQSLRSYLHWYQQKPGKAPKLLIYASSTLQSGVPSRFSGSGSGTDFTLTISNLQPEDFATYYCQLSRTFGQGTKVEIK
3.59

// fetch Neutralization IC50, H7-BC04 given entry Antibody 3 (antibody, V domains shown) VH: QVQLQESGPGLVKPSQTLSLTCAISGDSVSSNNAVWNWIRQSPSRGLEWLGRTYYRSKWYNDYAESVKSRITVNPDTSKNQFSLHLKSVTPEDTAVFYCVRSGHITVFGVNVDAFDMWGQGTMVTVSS VL: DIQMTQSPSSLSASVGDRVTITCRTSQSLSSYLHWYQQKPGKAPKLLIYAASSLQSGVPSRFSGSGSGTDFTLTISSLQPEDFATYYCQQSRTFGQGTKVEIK
4.72
